Measured values drawn from patent US20080293679A1 for this set.

Record form. Attribute: Lipid Peroxide Levels. Fill in for each entry.
Test: Lipid peroxide levels in DLPC multilamellar vesicles, C/P 0.2 (triiodide assay)
Format: biochemical
Settings: 48 Hour, carotenoid 10 μM; control 572 ± 76; mean ± S.D.
A number alone suffices; assume µM.

Return the recorded Lipid Peroxide Levels value; entry: CC1=C(/C=C/C(C)=C/C=C/C(C)=C/C=C/C=C(C)/C=C/C=C(C)/C=C/C2=C(C)C(=O)[C@@H](O)CC2(C)C)C(C)(C)C[C@H](O)C1=O [Astaxanthin, 3,3′-dihydroxy-β,β′-carotene-4,4′-dione]
339

Return the recorded Lipid Peroxide Levels value; entry: CC(C)=CCC/C(C)=C/C=C/C(C)=C/C=C/C(C)=C/C=C/C=C(C)/C=C/C=C(C)/C=C/C=C(\C)CCC=C(C)C
1253

Return the recorded Lipid Peroxide Levels value; entry: CC1=CC(O)CC(C)(C)C1/C=C/C(C)=C/C=C/C(C)=C/C=C/C=C(C)/C=C/C=C(C)/C=C/C1=C(C)CC(O)CC1(C)C (centres unmarked)
673

Return the recorded Lipid Peroxide Levels value; entry: CC1=C(/C=C/C(C)=C/C=C/C(C)=C/C=C/C=C(C)/C=C/C=C(C)/C=C/C2=C(C)CCCC2(C)C)C(C)(C)CCC1
1068

Return the recorded Lipid Peroxide Levels value; entry: CC1=C(/C=C/C(C)=C/C=C/C(C)=C/C=C/C=C(C)/C=C/C=C(C)/C=C/C2=C(C)C[C@@H](O)CC2(C)C)C(C)(C)C[C@H](O)C1
690
